# System: NCI-H460
# assay.explanation: Antiproliferative activity against human H460 cells after 72 hrs by MTT assay
# Assay type: functional
# test.parameters: NCI-H460, 72 h
readout: GI50 (µM)
Field format: number, assumed µM, no unit text.

[
  {
    "smiles.data": "C1COCC23CC4CC(C2)CC(COCCOCC25CC6CC(CC(CO1)(C6)O2)C5)(C4)O3",
    "GI50 [µM]": 4
  },
  {
    "smiles.data": "O=C(N1CCOCCOCCN(C(=O)C23CC4CC(CC(C4)C2)C3)CCOCCOCC1)C12CC3CC(CC(C3)C1)C2",
    "GI50 [µM]": 12
  },
  {
    "smiles.data": "O=C(CCC12CC3CC(CC(C3)C1)C2)N1CCOCCOCCOCCOCCOCC1",
    "GI50 [µM]": 72
  }
]

For record `C1COCCOCCN(CCC23CC4CC(CC(C4)C2)C3)CCOCCOCCO1` the listed GI50 is 15

For record `C1COCCN(CC23CC4CC(CC(C4)C2)C3)CCOCCOCCN(CC23CC4CC(CC(C4)C2)C3)CCO1` the listed GI50 is 18

For record `O=C(CC12CC3CC(CC(C3)C1)C2)N1CCOCCOCCN(C(=O)CC23CC4CC(CC(C4)C2)C3)CCOCCOCC1` the listed GI50 is 14

For record `C(CN1CCOCCOCCN(CCCC23CC4CC(CC(C4)C2)C3)CCOCCOCC1)CC12CC3CC(CC(C3)C1)C2` the listed GI50 is 1

For record `C(CN1CCOCCOCCOCCOCCOCC1)CC12CC3CC(CC(C3)C1)C2` the listed GI50 is 15
